Listing of entries alongside the reported MDCK-MDR1: % Recov A-B.
test system: MDR1-MDCK cell monolayers; test: MDCK-MDR1 permeability assay (BBB penetration potential); assay type: in vitro ADME; settings: dog, MDCK-MDR1, 120 min, 5 μM, pH 7.4
measure.name: MDCK-MDR1: % Recov A-B (%)

{"columns": ["molecule", "measure.name", "unit.of.measurement", "obs.value"],
 "data": [
  ["Cn1ccc(-c2ccc(-c3ccc(O[C@@H]4C[C@H]5CCC[C@H](N5)[C@@H]4F)nn3)c(O)c2)nc1=O (single isomer, unassigned) [107-ENT1]", "MDCK-MDR1: % Recov A-B", "%", 90],
  ["Cn1ccc(-c2ccc(-c3ccc(O[C@H]4C[C@@H]5CCC[C@@H](N5)[C@H]4F)nn3)c(O)c2)cc1=O (single isomer, unassigned) [54-ENT2]", "MDCK-MDR1: % Recov A-B", "%", 101],
  ["Cc1ccc(-c2ccc(-c3ccc(O[C@H]4C[C@@H]5CCC[C@@H](N5)[C@H]4F)nn3)c(O)c2)nn1 (single isomer, unassigned) [75-ENT2]", "MDCK-MDR1: % Recov A-B", "%", 82],
  ["Cn1cc(-c2ccc(-c3ccc(O[C@H]4C[C@]5(C)CC[C@@](C)(N5)[C@H]4F)nn3)c(O)c2)cn1 (single isomer, unassigned) [150-ENT1]", "MDCK-MDR1: % Recov A-B", "%", 77],
  ["Cn1ccc(-c2ccc(-c3ccc(O[C@@H]4C[C@H]5CCC[C@H](N5)[C@@H]4F)nn3)c(O)c2)n1 (single isomer, unassigned) [68-ENT1]", "MDCK-MDR1: % Recov A-B", "%", 87],
  ["Oc1cc(-c2cnn3ccccc23)ccc1-c1ccc(O[C@H]2C[C@@H]3CCC[C@@H](N3)[C@H]2F)nn1 (single isomer, unassigned) [91-ENT2]", "MDCK-MDR1: % Recov A-B", "%", 30],
  ["C[C@]12CCC[C@](C)(N1)[C@H](F)[C@H](Oc1ccc(-c3ccc(C#N)cc3O)nn1)C2 (single isomer, unassigned) [145-ENT1]", "MDCK-MDR1: % Recov A-B", "%", 82],
  ["Cn1cc(-c2ccc(-c3ccc(O[C@@H]4C[C@H]5CCC[C@H](N5)[C@H]4F)nn3)c(O)c2)cn1 (single isomer, unassigned) [49-ENT1]", "MDCK-MDR1: % Recov A-B", "%", 49],
  ["Cc1nnc(-c2ccc(-c3ccc(O[C@H]4C[C@@H]5CCC[C@@H](N5)[C@H]4F)nn3)c(O)c2)s1 (single isomer, unassigned) [95-ENT2]", "MDCK-MDR1: % Recov A-B", "%", 78],
  ["Cn1cc(-c2cc(O)c(-c3ccc(O[C@@H]4C[C@H]5CCC[C@H](N5)[C@@H]4F)nn3)cc2F)cn1 (single isomer, unassigned) [82-ENT1]", "MDCK-MDR1: % Recov A-B", "%", 45],
  ["Oc1cc2nccnc2cc1-c1ccc(O[C@H]2C[C@@H]3CCC[C@@H](N3)[C@H]2F)nn1 (single isomer, unassigned) [104-ENT2]", "MDCK-MDR1: % Recov A-B", "%", 93],
  ["Cn1cnc(-c2ccc(-c3ccc(O[C@H]4C[C@@H]5CCC[C@@H](N5)[C@H]4F)nn3)c(O)c2)cc1=O (single isomer, unassigned) [138-ENT2]", "MDCK-MDR1: % Recov A-B", "%", 92],
  ["Cn1ccc(-c2ccc(-c3ccc(O[C@H]4C[C@@H]5CCC[C@@H](N5)[C@H]4F)nn3)c(O)c2)n1 (single isomer, unassigned) [68-ENT2]", "MDCK-MDR1: % Recov A-B", "%", 76],
  ["Cn1cc(-c2cc(O)c(-c3ccc(O[C@H]4C[C@@H]5CCC[C@@H](N5)[C@H]4F)nn3)cn2)cn1 (single isomer, unassigned) [64-ENT2]", "MDCK-MDR1: % Recov A-B", "%", 92],
  ["COc1cc(-c2ccc(-c3ccc(O[C@H]4C[C@]5(C)CC[C@@](C)(N5)[C@H]4F)nn3)c(O)c2)cnn1 (single isomer, unassigned) [157-ENT2]", "MDCK-MDR1: % Recov A-B", "%", 82],
  ["Oc1cc(-c2nnco2)c(F)cc1-c1ccc(O[C@@H]2C[C@H]3CC[C@H](N3)[C@@H]2F)nn1 (single isomer, unassigned) [142-ENT2]", "MDCK-MDR1: % Recov A-B", "%", 101],
  ["CN(C)C(=O)c1cc2cc(O)c(-c3ccc(O[C@H]4C[C@]5(C)CCC[C@@](C)(N5)[C@H]4F)nn3)cc2o1 (single isomer, unassigned) [155-ENT2]", "MDCK-MDR1: % Recov A-B", "%", 102],
  ["Cn1cc(-c2cc(O)c(-c3ccc(O[C@H]4C[C@@H]5CCC(N5)[C@H]4F)nn3)cn2)cn1 (single isomer, unassigned) [63-ENT2]", "MDCK-MDR1: % Recov A-B", "%", 96],
  ["Oc1cc2cccnc2cc1-c1ccc(O[C@H]2C[C@@H]3CCC[C@@H](N3)[C@H]2F)nn1 (single isomer, unassigned) [105-ENT2]", "MDCK-MDR1: % Recov A-B", "%", 91],
  ["O=c1cc(-c2cc(O)c(-c3ccc(O[C@@H]4C[C@H]5CCC[C@H](N5)[C@@H]4F)nn3)cc2F)cc[nH]1 (single isomer, unassigned) [57-ENT1]", "MDCK-MDR1: % Recov A-B", "%", 94],
  ["Cn1ccc(-c2ccc(-c3ccc(O[C@H]4C[C@]5(C)CCC[C@@](C)(N5)[C@H]4F)nn3)c(O)c2)cc1=O (single isomer, unassigned) [149-ENT1]", "MDCK-MDR1: % Recov A-B", "%", 76],
  ["Cn1cc(-c2ccc(-c3ccc(O[C@H]4C[C@@H]5CCC[C@@H](N5)[C@H]4F)nn3)c(O)c2F)cn1 (single isomer, unassigned) [119-ENT2]", "MDCK-MDR1: % Recov A-B", "%", 59],
  ["Cn1ccc(=O)c2cc(-c3ccc(O[C@H]4C[C@]5(C)CCC[C@@](C)(N5)[C@H]4F)nn3)c(O)cc21 (single isomer, unassigned) [131-ENT1]", "MDCK-MDR1: % Recov A-B", "%", 95]
]}

* * *

system: MDR1-MDCK cell monolayers; assay: MDCK-MDR1 permeability assay (BBB penetration potential); assay type: in vitro ADME; details: dog, MDCK-MDR1, 120 min, 5 μM, pH 7.4
This section presents molecules with their documented MDCK-MDR1: % Recov A-B values.
measure.name: MDCK-MDR1: % Recov A-B (%)

{"columns": ["molecule", "experimental.system", "unit.of.measurement", "obs.value"],
 "data": [
  ["Cc1cnc(-c2ccc(-c3ccc(O[C@H]4C[C@@H]5CCC[C@@H](N5)[C@H]4F)nn3)c(O)c2)cn1 (single isomer, unassigned) [78-ENT2]", "MDR1-MDCK cell monolayers", "%", 56],
  ["Oc1cc(-c2nnco2)c(F)cc1-c1ccc(O[C@@H]2C[C@H]3CCC[C@H](N3)[C@@H]2F)nn1 (single isomer, unassigned) [143-ENT2]", "MDR1-MDCK cell monolayers", "%", 81],
  ["Oc1cc(-c2cn[nH]c2)ccc1-c1ccc(O[C@@H]2C[C@H]3CC[C@H](N3)[C@@H]2F)nn1 (single isomer, unassigned) [42-ENT2]", "MDR1-MDCK cell monolayers", "%", 85],
  ["Cn1cc(-c2ccc(-c3ccc(O[C@@H]4C[C@H]5CC[C@H](N5)[C@@H]4F)nn3)c(O)c2)cn1 (single isomer, unassigned) [60-ENT1]", "MDR1-MDCK cell monolayers", "%", 68],
  ["Cn1cc(-c2ccc(-c3ccc(O[C@@H]4C[C@@]5(C)CCC[C@](C)(N5)[C@@H]4F)nn3)c(O)c2)cn1 (single isomer, unassigned) [154-ENT2]", "MDR1-MDCK cell monolayers", "%", 81],
  ["Oc1cc(-n2ccnc2)ccc1-c1ccc(O[C@@H]2C[C@H]3CC[C@H](N3)[C@@H]2F)nn1 (single isomer, unassigned) [36-ENT1]", "MDR1-MDCK cell monolayers", "%", 74],
  ["Cn1cc(-c2ccc(-c3ccc(O[C@H]4C[C@H]5CCC[C@H](N5)[C@@H]4F)nn3)c(O)c2)cn1 (single isomer, unassigned) [121-ENT1]", "MDR1-MDCK cell monolayers", "%", 66],
  ["Oc1cc(-c2cn[nH]c2)ccc1-c1ccc(O[C@@H]2C[C@H]3CCC[C@H](N3)[C@@H]2F)nn1 (single isomer, unassigned) [40-ENT2]", "MDR1-MDCK cell monolayers", "%", 80],
  ["Cn1cc(-c2cc(O)c(-c3ccc(O[C@H]4C[C@@H]5CC[C@@H](N5)[C@H]4F)nn3)cc2F)cn1 (single isomer, unassigned) [61-ENT2]", "MDR1-MDCK cell monolayers", "%", 36],
  ["Cc1nnc(-c2ccc(-c3ccc(O[C@H]4C[C@@H]5CCC[C@@H](N5)[C@H]4F)nn3)c(O)c2)o1 (single isomer, unassigned) [94-ENT2]", "MDR1-MDCK cell monolayers", "%", 93],
  ["Cn1cnc2cc(O)c(-c3ccc(O[C@@H]4C[C@@]5(C)CCC[C@](C)(N5)[C@@H]4F)nn3)cc2c1=O (single isomer, unassigned) [133-ENT2]", "MDR1-MDCK cell monolayers", "%", 92],
  ["Cc1nc(-c2ccc(-c3ccc(O[C@H]4C[C@@H]5CCC[C@@H](N5)[C@H]4F)nn3)c(O)c2)cs1 (single isomer, unassigned) [71-ENT1]", "MDR1-MDCK cell monolayers", "%", 47],
  ["Cc1cc(-c2ccc(-c3ccc(O[C@H]4C[C@@H]5CCC[C@@H](N5)[C@H]4F)nn3)c(O)c2)cs1 (single isomer, unassigned) [101-ENT2]", "MDR1-MDCK cell monolayers", "%", 20],
  ["Oc1cc(-c2ccn3cnnc3c2)ccc1-c1ccc(O[C@@H]2C[C@H]3CCC[C@H](N3)[C@@H]2F)nn1 (single isomer, unassigned) [86-ENT1]", "MDR1-MDCK cell monolayers", "%", 89],
  ["Cn1cc(-c2ccc(-c3ccc(O[C@@H]4C[C@@H]5CCC[C@@H](N5)[C@H]4F)nn3)c(O)c2)cn1 (single isomer, unassigned) [121-ENT2]", "MDR1-MDCK cell monolayers", "%", 75],
  ["Oc1cc(-c2ccccn2)ccc1-c1ccc(O[C@@H]2C[C@H]3CCC[C@H](N3)[C@@H]2F)nn1 (single isomer, unassigned) [77-ENT1]", "MDR1-MDCK cell monolayers", "%", 52],
  ["Cn1ccc2cc(O)c(-c3ccc(O[C@@H]4C[C@H]5CC[C@H](N5)[C@@H]4F)nn3)cc2c1=O (single isomer, unassigned) [129-ENT2]", "MDR1-MDCK cell monolayers", "%", 72],
  ["N#Cc1ccc(-c2ccc(O[C@@H]3C[C@H]4CCC[C@H](N4)[C@@H]3F)nn2)c(O)c1 (single isomer, unassigned) [110-ENT1]", "MDR1-MDCK cell monolayers", "%", 101],
  ["Oc1cc(-n2cccn2)ccc1-c1ccc(O[C@H]2C[C@@H]3CC[C@@H](N3)[C@H]2F)nn1 (single isomer, unassigned) [35-ENT2]", "MDR1-MDCK cell monolayers", "%", 62],
  ["Oc1cc(-c2nncs2)ccc1-c1ccc(O[C@H]2C[C@@H]3CCC[C@@H](N3)[C@H]2F)nn1 (single isomer, unassigned) [116-ENT2]", "MDR1-MDCK cell monolayers", "%", 90],
  ["Cn1cc(-c2ccc(-c3ccc(O[C@H]4C[C@@H]5CCC[C@@H](N5)[C@@H]4F)nn3)c(O)c2)cn1 (single isomer, unassigned) [49-ENT2]", "MDR1-MDCK cell monolayers", "%", 46],
  ["Cc1ncn(-c2ccc(-c3ccc(O[C@@H]4C[C@H]5CCC[C@H](N5)[C@@H]4F)nn3)c(O)c2)n1 (single isomer, unassigned) [70-ENT1]", "MDR1-MDCK cell monolayers", "%", 93],
  ["Cn1ccc2cc(O)c(-c3ccc(O[C@H]4C[C@]5(C)CC[C@@](C)(N5)[C@H]4F)nn3)cc2c1=O (single isomer, unassigned) [130-ENT1]", "MDR1-MDCK cell monolayers", "%", 78]
]}
